Tested on: Fibroblast
measurement_description: Multiplex assay against human fibroblast
Type: toxicity, cell-based
measurement_setup: 12 h, 1 µM, compound concentration 1 uM, replicate 2
Population Pyknosed Nuclei (%) of 20% or higher: YES. Under 20%: NO.

CCCOc1ccc2[nH]cc(C3=CCNCC3)c2n1.Cl :: YES
NCCc1cn(S(=O)(=O)c2c(Cl)nc3sccn23)c2ccccc12.O=C(O)C(=O)O :: YES
COC[C@@H](c1ccc(C(F)(F)F)cc1)N1CCN(C2(C)CCN(C(=O)c3c(C)ncnc3C)CC2)C[C@@H]1C.O=C(O)/C=C\C(=O)O [VICRIVIROC MALEATE] :: YES
Cl.NCCc1ccc(O)c(O)c1 [DOPAMINE HYDROCHLORIDE] :: YES
N#Cc1cc(F)cc(-c2nc(-c3ccc(F)cn3)no2)c1 :: YES
COc1ccccc1N1CCN(C[C@@H](C(=O)NC(C)(C)C)c2ccccc2)CC1.Cl.Cl :: YES
O=C(CCCc1ccccc1)Nc1nc2ccccc2c(=O)s1 :: YES
Cc1onc(-c2ccccc2Cl)c1C(=O)N(C)c1ccc(Cl)cc1 :: YES
CN[C@@H](C)C(=O)N[C@H](C(=O)N1CCC[C@H]1C(=O)Nc1snnc1-c1ccccc1)C1CCCCC1 :: YES
Br.CS(=O)(=O)Nc1c(O)ccc2c1CCCC2C1=NCCN1 (configuration not stated) :: NO
O=C(NCCN1CCC(n2c(=O)[nH]c3cc(Cl)ccc32)CC1)c1ccc(F)cc1 [HALOPEMIDE] :: YES
CN1CCN(c2cc(-c3ccccc3)nc(N)n2)CC1 :: YES
Cc1cccc(NC(=O)CN2CCC(c3ccccn3)CC2)c1.Cl.Cl :: NO
CC(C)c1noc(N2CCC(COc3ccc(-c4ccc(S(C)(=O)=O)cc4)nc3)CC2)n1 :: YES
CC(/C=C1\SC(=S)N(CCCC(=O)Nc2ccc(C(=O)O)c(O)c2)C1=O)=C\c1ccccc1 :: NO
C[C@H](N)COC(=O)[C@@H](CCCCN)NC(=O)Cc1c(-c2ccc3ccccc3c2)[nH]c2c1ccc1ccccc12 :: YES
CCc1cc2cc(NS(=O)(=O)c3ccc(C#N)cc3)ccc2n(CC)c1=O :: YES
CC[C@@H](C)Nc1nc(C)nc2c(-c3ccc(OC)nc3C)c(C)nn12 :: YES
Cc1c(CC(=O)O)c2cccnc2n1Cc1ccc(S(C)(=O)=O)cc1C(F)(F)F :: NO
CC(=O)Nc1cccc2c1c(Sc1ccc(Cl)cc1)c(C)n2CC(=O)O :: YES

* * *

Tested on: HEK-293T
measurement_description: Multiplex assay against HEK293T
Format: toxicity, cell-based
measurement_setup: human, 48 h, 10 µM, compound concentration 10 uM, replicate 2
measurement_type: Population Pyknosed Nuclei (%)

CC(C)c1noc(N2CCC(COc3ccc(-c4ccc(S(C)(=O)=O)cc4)nc3)CC2)n1 :: 8
CCc1cc2cc(NS(=O)(=O)c3ccc(C#N)cc3)ccc2n(CC)c1=O :: 9
CC(=O)Nc1cccc2c1c(Sc1ccc(Cl)cc1)c(C)n2CC(=O)O :: 5
Cc1sc2c(c1C)C(c1ccc(Cl)cc1)=N[C@@H](CC(=O)NCCCCCCCCNC(=O)COc1cccc3c1C(=O)N(C1CCC(=O)NC1=O)C3=O)c1nnc(C)n1-2 (some centres undefined) :: 31
